Entries annotated with measured GI50
- Tested on: SK-OV-3
- METHOD SUMMARY: NCI tumour cell line growth inhibition, 48 h
Activity calls are given as the source filed them. Cut-off read from the data, not from the text of the source: active = GI50 up to about 1.1 µM and inactive = higher.

# example entries with known answers
{"columns": ["MOLECULE", "MEASURED TARGET", "VALUE REPORTED"],
 "data": [
  ["Clc1cccc(-c2sc(-c3cccs3)cc2Cc2cccs2)c1", "SK-OV-3", "> 10 µM (inactive)"],
  ["C1C2CC3CC1CC(Nc1nc(NC45CC6CC(CC(C6)C4)C5)nc(NC45CC6CC(CC(C6)C4)C5)n1)(C2)C3", "SK-OV-3", "> 100 µM (inactive)"],
  ["[N-]=[N+]=Nc1ccccc1-c1ccccc1[N+](=O)[O-]", "SK-OV-3", "> 100 µM (inactive)"],
  ["CC(=O)O/N=C(Cl)/C(Cl)=N/OC(C)=O", "SK-OV-3", "> 100 µM (inactive)"],
  ["O=C(O)CCC(NC(=O)c1ccc(CNc2nc3ccccc3nc2C(=O)O)cc1)C(=O)O (centres undefined)", "SK-OV-3", "> 100 µM (inactive)"],
  ["NC(=O)C(=O)N/N=C1/c2ccccc2CC1C1(O)C(=O)Nc2c(Cl)cc(Cl)cc21 (centres undefined)", "SK-OV-3", "> 100 µM (inactive)"]
]}

Please look up its GI50: Cc1ccccc1C(=O)C#Cc1cn(C2CC(O)C(CO)O2)c(=O)[nH]c1=O (centres undefined)
> 100 µM (inactive)

// next record [N-]=[N+]=Nc1ccccc1C(=O)N1C(=O)c2ccccc2C(=O)N(C(=O)c2ccccc2N=[N+]=[N-])c2ccccc21
31.2 µM (inactive)

Check CC1C2CC(C/C2=N/O)C1(C)C (centres undefined) too.
> 100 µM (inactive)

====

- System: MDA-MB-435
- METHOD SUMMARY: NCI tumour cell line growth inhibition, 48 h
Calls of active or inactive are those of the source. Cut-off read from the data, not from the text of the source: active = GI50 up to about 1.1 µM and inactive = higher.
REPORTED METRIC: GI50

{"columns": ["MOLECULE", "GI50"],
 "data": [
  ["CCCCCCCCOP(=O)(O)OP(=O)(O)OCC1OC(n2ccc(N)nc2=O)C(O)C1O (stereo not drawn)", "> 100 µM (inactive)"],
  ["C/C=C\\C(CC(=O)O)CC(=O)NCCC1CN(S(=O)(=O)C(F)(F)F)c2ccccc21 (stereo not drawn)", "> 100 µM (inactive)"]
]}

Please find the next molecule below.
What measured GI50 goes with O=C(c1ccccc1)c1c(C(F)(F)F)[n+]([O-])c2cc(F)c(F)cc2[n+]1[O-] ?
1.53 µM (inactive)

====

- Test system: SNB-75
- METHOD SUMMARY: NCI tumour cell line growth inhibition, 48 h
Calls of active or inactive are those of the source. Cut-off read from the data, not from the text of the source: active = GI50 up to about 1.1 µM and inactive = higher. Starred links: 1 amine or outer side, 2 acyl side, 3 side chain; linkers in the order of their positions; H or OH if unused. Non-standard residues stand in square brackets, D forms with d. Residues, ends and D or L forms follow the SMILES beside them. X4 = C[C@H](N[*:1])C(=O)C(C)(C)C(=O)[*:2]; Hmpa(2S,3S) = CC[C@H](C)[C@H](O)C(=O)O; NMeY = CN[C@@H](Cc1ccc(O)cc1)C(=O)O; NMeL = CN[C@@H](CC(C)C)C(=O)O; NMeV = CN[C@H](C(=O)O)C(C)C; βAla = NCCC(=O)O
Reported GI50 values are given for each entry in this list.

{"columns": ["COMPOUND", "MEASURED TARGET", "VALUE REPORTED"],
 "data": [
  ["COc1ccccc1N1C(=O)CC(=O)N(C(=O)CCCCCCCCC(=O)N2C(=O)CC(=O)N(c3ccccc3OC)C2=S)C1=S", "SNB-75", "> 100 µM (inactive)"],
  ["Cc1ccc(S[C@@](C=O)(NC(=O)OCc2ccccc2)C(F)(F)F)cc1", "SNB-75", "22.5 µM (inactive)"]
]}

// query GI50 value for entry Clc1cccc(-c2sc(-c3cccs3)cc2Cc2cccs2)c1
> 10 µM (inactive)

Try O=C1C=CC2OC(c3ccccc3)C(O)C2O1 (centres undefined) next.
10.4 µM (inactive)

Now try O=C(c1ccccc1)N1C(=S)N(c2ccc([N+](=O)[O-])cc2)C(=N/c2ccccc2)/C1=N\c1ccccc1 .
24.4 µM (inactive)

Consider next the compound CC[C@H](C)[C@@H]1OC(=O)CCNC(=O)[C@@H](C)NC(=O)C(C)(C)C(=O)[C@H](C)NC(=O)[C@H](Cc2ccc(OC)cc2)N(C)C(=O)[C@H](C(C)C)N(C)C(=O)CNC(=O)[C@H](CC(C)C)N(C)C(=O)CNC1=O (cyclo(G[NMeL]G[NMeV][NMeY](Me)[X4][dA][βAla][Hmpa(2S,3S)])) in the same way.
0.348 µM (active)

Repeat with COc1cc(Cn2c3ccccc3c3cc(C)c4c(c32)C=CC(C)(CCC=C(C)C)O4)cc2c1[nH]c1ccccc12 (centres undefined)
> 100 µM (inactive)

Then CC(CSC(=N)N)C(N)=O (centres undefined) ?
> 100 µM (inactive)

O=C(O)CCC(=O)c1ccc2sc3ccccc3c2c1 , same question.
> 100 µM (inactive)
